Quick reference for IC50 among some binders
Measured on: Region II of the P. vivax Duffy antigen-binding protein (DABP) expressed on the Cos7 cell surface (Plasmodium vivax; Herpes simplex virus, UniProt P22290)
Response body: numeric value in nM, unit text excluded.

{"columns": ["Binder", "Readout", "Reported value"],
 "data": [
  ["AELSPSTQNSSQLNSDLWNFSYDGNDSFPDVDYD [RHPEP34]", "IC50", 2100]
]}

Could you share which IC50 value was measured for AELSPSTENSSQLDFEDVWNSSYGVNDSFPDGDYD [HPEP35] ? 2900
